Target: HLA DRB1 *1302 (Homo sapiens, UniProt P01903+P01911, A100E/A169T/K41T/L162R/M171V/P40S/Q125H/Q178H/Q39Y/Q99D/R42S/S66N/T262R/V115G/W38E/Y61H)
Sequence (P01903 26-254 limits assumed, other chains not shown): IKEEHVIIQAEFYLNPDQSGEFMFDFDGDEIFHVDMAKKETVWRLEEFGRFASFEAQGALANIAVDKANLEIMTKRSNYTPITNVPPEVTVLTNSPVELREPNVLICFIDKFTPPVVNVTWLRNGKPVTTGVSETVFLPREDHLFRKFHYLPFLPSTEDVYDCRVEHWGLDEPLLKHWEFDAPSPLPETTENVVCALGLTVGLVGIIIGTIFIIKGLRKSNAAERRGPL
Experiment: IC50nM to purified HLA | DRB1 *1302
Experimental: Table printed on a drawing sheet, FIG. 1 (contd.) Head of the field: IC50nM to purified HLA | DRB1 *1302 First copying reader's note: Continued from the preceding sheet of FIG. 1; decimal commas are used, the analog names give the substituted residues and positions in PADRE, and some values are printed in italics or bold and some SEQ ID NOs bold and underlined without a legend on this sheet. Where the first naming reader finds the target: head: IC50nM to purified HLA | DRB1 *1302
Where no end group is shown, it is not given here.
Below, each of the sequences is paired with its reported IC50 value.

>  <sequence_data>
AAANFVAAYTLHAAA [SEQ ID NO: 52]

>  <IC50>
1420 nM

$$$$
>  <sequence_data>
AAAEFVAAYTLHAAA [SEQ ID NO: 47]

>  <IC50>
1450 nM

$$$$
>  <sequence_data>
AAAHFVAANTLKAEA [SEQ ID NO: 39]

>  <IC50>
234 nM

$$$$
>  <sequence_data>
AAAHFVAANTLHAAA [SEQ ID NO: 29]

>  <IC50>
47 nM

$$$$
>  <sequence_data>
AAADFVAAWTLKAAA [SEQ ID NO: 40]

>  <IC50>
4000 nM

$$$$
>  <sequence_data>
AAAEFVAAWTLKAAA [SEQ ID NO: 45]

>  <IC50>
840 nM

$$$$
>  <sequence_data>
AAAHFVAAFTLKAEA [SEQ ID NO: 38]

>  <IC50>
801 nM

$$$$

Data origin, for the record: patent US9789181B2
